Target: CDK2/cyclinE1 (Homo sapiens, UniProt P24941)
Assay: Cyclin-dependent kinase activity assay (continuous ATP coupling assay), CDK2/cyclinE1
Conditions: CDK2/cyclinE1 5 nM, ATP 300 μM, Rb copeptide 100 μM, 15 min preincubation, pH 7.5, 1% DMSO
Method: Cyclin-dependent kinase activity assay was measured by continuous ATP coupling assay in which ADP generated by kinase catalyzed phosphorylation was converted back to ATP by consuming phosphoenolpyruvate (PEP) and NADH catalyzed by pyruvate kinase/lactate dehydrogenase (PK/LDH). […] For inhibition assay, compounds were first serial diluted in a 1:3 ratio from 10 μM to 0.05 nM using 10× reaction buffer. […] Data were analyzed using commercially available software Graphpad Prism. […]
Measurement Type: IC50

Observed IC50 on CDK2/cyclinE1 (Homo sapiens, UniProt P24941) for CNS(=O)(=O)c1ccc(Nc2ncc(C(F)(F)F)c(-n3ccc(CC(C)(C)O)n3)n2)cc1 [Example 4] , please.
10 to 100 nM

Lookup CNS(=O)(=O)c1ccc(Nc2ncc(C(F)(F)F)c(-n3cc(C4CC4(F)F)cn3)n2)cc1 (single isomer, unassigned) [Example 53]
10 to 100 nM

Quick one: CCS(=O)(=O)N1C2CCC1CC(Nc1ncc(C(F)(F)F)c(-n3cccn3)n1)C2 (stereo not drawn) [Example 31]
≥ 100 nM

Repeat with CNS(=O)(=O)c1ccc(Nc2ncc(C(F)(F)F)c(-n3cc([C@@H]4CCC[C@H]4O)cn3)n2)cc1 (single isomer, unassigned) [Example 74]
10 to 100 nM

Okay, and CNS(=O)(=O)c1ccc(Nc2ncc(C(F)(F)F)c(-n3cc(C(F)(F)F)cn3)n2)cc1 [Example 47] ?
10 to 100 nM

Next compound: O=S(=O)(NCCOC(F)(F)F)c1ccc(Nc2ncc(C(F)(F)F)c(-n3cccn3)n2)cc1 [Example 128]
≥ 100 nM

Can you handle Cc1cnc(Nc2ccc(S(=O)(=O)NCCO)cc2)nc1-n1cccn1 [Example 114] next?
10 to 100 nM

Can you handle CNS(=O)(=O)c1ccc(Nc2nccc(-n3cc(CC(C)(C)O)cn3)n2)cc1 [Example 67] next?
10 to 100 nM

What would you report for CNS(=O)(=O)c1ccc(Nc2ncc(C(F)(F)F)c(-n3cc(C4CCC4)cn3)n2)cc1 [Example 101] ?
10 to 100 nM

----------
# maps each entry to its IC50
Molecular target: CDK6/cyclinD3 (Homo sapiens, UniProt Q00534)
Sequence (Q00534 whole entry): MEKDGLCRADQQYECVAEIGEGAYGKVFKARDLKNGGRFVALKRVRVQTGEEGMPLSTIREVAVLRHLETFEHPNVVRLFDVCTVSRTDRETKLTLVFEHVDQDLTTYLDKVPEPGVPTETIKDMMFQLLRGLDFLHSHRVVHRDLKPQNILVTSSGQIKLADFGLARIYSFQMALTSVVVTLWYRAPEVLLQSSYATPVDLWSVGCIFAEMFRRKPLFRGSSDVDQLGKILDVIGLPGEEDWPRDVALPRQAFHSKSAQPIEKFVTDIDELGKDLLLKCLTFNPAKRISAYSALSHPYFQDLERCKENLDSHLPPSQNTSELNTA
Sequence (P30281 whole entry partner): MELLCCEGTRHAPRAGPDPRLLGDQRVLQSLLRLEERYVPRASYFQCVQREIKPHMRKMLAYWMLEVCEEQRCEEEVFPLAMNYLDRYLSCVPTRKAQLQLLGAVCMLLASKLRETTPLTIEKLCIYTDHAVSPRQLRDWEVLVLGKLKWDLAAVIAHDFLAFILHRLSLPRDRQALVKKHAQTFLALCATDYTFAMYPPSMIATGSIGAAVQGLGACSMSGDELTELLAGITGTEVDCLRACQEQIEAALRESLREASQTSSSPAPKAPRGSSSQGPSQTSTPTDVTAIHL
Experiment: Cyclin-dependent kinase activity assay (continuous ATP coupling assay), CDK6/cyclinD3
Details: CDK6/cyclinD3 25 nM, ATP 500 μM, Rb copeptide 500 μM, 15 min preincubation, pH 7.5, 1% DMSO

compound="O=S(=O)(NCC1(CO)CC1)c1ccc(Nc2ncc(C(F)(F)F)c(-n3cccn3)n2)cc1 [Example 132]" result="≥ 100 nM"

From here, focus on the item given below.
Need IC50 of CNS(=O)(=O)c1ccc(Nc2ncc(C(F)(F)F)c(-n3cc(C4COC4)cn3)n2)cc1 [Example 102] , thanks.
10 to 100 nM

----------
Target: CDK2/cyclinE1 (Homo sapiens, UniProt P24941)
Construct: purchased Carna Biosciences 04-165
Assay: Cyclin-dependent kinase activity assay (continuous ATP coupling assay), CDK2/cyclinE1
Assay type: biochemical
Conditions: CDK2/cyclinE1 5 nM, ATP 300 μM, Rb copeptide 100 μM, 15 min preincubation, pH 7.5, 1% DMSO
pIC50: −log10 of the molar value.
Reported values of pIC50 for individual entries

Look up pIC50: "O=S(=O)(NCCO)c1ccc(Nc2ncc(C(F)F)c(-n3cccn3)n2)cc1"
7.00 to 8.00
